# Test system: A498 renal
# assay-overview: NCI tumour cell line growth inhibition, 48 h
measurement-label: GI50

Enquiry: Param item = CCOC(=O)c1c(C)n([O-])c2cc(F)c(F)cc2[n+]1=O ; retrieve measured GI50.
Return: 15.9 µM

New cases:
Enquiry: Quick one: GI50 of COC(=O)C1C(C(=O)O)C2(c3ccccc3)C(=O)C1(c1ccccc1)C(c1ccc(OC)cc1)=C2c1ccc(OC)cc1 (stereo not given) ?
Return: 23.2 µM

Enquiry: Entry Cc1cc(O)ccc1C1(c2ccc(O)cc2C)OC(=O)c2ccccc21 : reported GI50 = ?
Return: 17.7 µM

Enquiry: Recorded GI50 for Cc1ccc2ncnc(N(C)C3CCCCC3)c2c1 , please?
Return: 77.1 µM

Enquiry: Recorded GI50 for CC(=O)OC(C(=O)[O][Ge]([CH3])([CH3])[CH3])c1ccccc1 (stereo not given) , please?
Return: > 100 µM

Enquiry: Would you mind telling me what GI50 value was observed for COc1cc(/C=C2\CCC/C(=C\c3cc(CN4CCCC4)c(O)c(OC)c3)C2=O)cc(CN2CCCC2)c1O ?
Return: 2.94 µM

Enquiry: State the recorded GI50 for this entry: COc1ccc2c(c1)OCC1c3cc(OC)c4ccccc4c3OC21 (stereo not given)
Return: 25 µM

Enquiry: Please look up its GI50: NS(=O)(=O)c1ccc(N=Nc2c(O)[nH]c3ccc(C(=O)NCCCn4ccnc4)cc23)cc1
Return: > 25 µM

Enquiry: Fill in: GI50 of Cc1nc2ccc(-n3ncc(C(=O)c4cc5ccccc5[nH]4)c3N)cc2[nH]1 is ___
Return: 0.496 µM

Enquiry: Return reported GI50; argument: CCc1ccc(Oc2c(-c3ccc(OCCc4cccc(C(F)(F)F)c4)cc3O)n[nH]c2C(F)(F)F)cc1
Return: 5.93 µM

###

# Tested on: OVCAR-4 ovarian
# assay-overview: NCI tumour cell line growth inhibition, 48 h
The following compounds are shown together with reported TGI values.

Enquiry: Suppose we examine the compound O=c1cccccc1[O-].O=c1cccccc1[O-].O=c1cccccc1[O-].[Nd+3] ; what TGI value has been reported?
Return: > 100 µM

Enquiry: Reported TGI, compound Nc1nc2ccc(CNc3ccc(C(=O)NC(CC(=O)O)C(=O)O)cc3)cc2c(=O)[nH]1 (stereo unspecified) : ____
Return: > 100 µM

Enquiry: Sample CCOC(=O)c1ccc(N=C2Sc3nc4ccccc4n3C2=Nc2ccc(C(=O)OCC)cc2)cc1 — what was its TGI?
Return: 81.5 µM

Enquiry: Quick one: TGI of O=P1(Oc2ccc(Cl)cc2Cl)Oc2cc3ccccc3cc2O1 ?
Return: > 100 µM

Enquiry: Give the measured TGI of Cc1cn2c(/C=N/N=C(N)N)c(-c3ccc([N+](=O)[O-])cc3)nc2s1 .
Return: 0.316 µM

Enquiry: Need TGI, item Cc1ccc2ncnc(N(C)C3CCCCC3)c2c1
Return: > 100 µM

Enquiry: Report TGI for CS(=O)(=O)N1CCC(Nc2ncc(C(=O)c3c(F)cccc3F)c(N)n2)CC1 please.
Return: > 25 µM

Enquiry: Tell me the measured TGI of CCCCCc1cc(/C=C2/N=C(c3ccc[nH]3)C=C2OC)[nH]c1C , please.
Return: 0.351 µM

Enquiry: If you can, please state the reported TGI value of CCc1ccc(Oc2c(-c3ccc(OCCc4cccc(C(F)(F)F)c4)cc3O)n[nH]c2C(F)(F)F)cc1 .
Return: 8.05 µM

Enquiry: Fill in the blank: the reported TGI of CC(=O)OC(C(=O)[O][Ge]([CH3])([CH3])[CH3])c1ccccc1 (stereo unspecified) is ____.
Return: > 100 µM

More entries:
Enquiry: Report TGI for CCCCCOC(=O)Nc1nc(=O)n(C2OC(C)C(O)C2O)cc1F (stereo unspecified) please.
Return: > 10000 µM

###

Reported TGI is given for each of the following compounds.
# Test system: DMS 273 small cell lung
# assay-overview: NCI tumour cell line growth inhibition, 48 h

Take a look at these entries with their results.
Enquiry: Record request: TGI value, item O=C(O)C1=Cc2cccc3cccc(c23)C1=O
Return: > 100 µM

Enquiry: Which TGI is reported for this compound? O=C(O)C1=C(CO)Oc2cc3c(cc2C1c1ccc2c(c1)OCO2)OCO3 (stereo not drawn)
Return: > 100 µM

Enquiry: Give its TGI value. Item: O=C1c2ccccc2C(=O)c2c1oc1cc(O)c(Cl)cc21
Return: 10.8 µM

More entries:
Enquiry: Sample O=c1cccccc1[O-].O=c1cccccc1[O-].O=c1cccccc1[O-].[Nd+3] — what was its TGI?
Return: > 100 µM

Enquiry: Using the record for C#CN1C(=O)c2c(c(-c3ccccc3)c(-c3ccc(Oc4ccc(-c5c(-c6ccccc6)c6c(c(-c7ccccc7)c5-c5ccccc5)C(=O)N(C#C)C6=O)cc4)cc3)c(-c3ccccc3)c2-c2ccccc2)C1=O , report its TGI.
Return: > 100 µM

Enquiry: Entry under review: OC1(C(Sc2ccccc2)Sc2ccccc2)CCCCCC1 . Reported TGI?
Return: 76.5 µM

Enquiry: Quick one: TGI for CC(C)(C)N1CC1CNC(=O)C(=O)NCC1CN1C(C)(C)C (stereo not drawn) ?
Return: 0.517 µM

Enquiry: Recorded TGI of CC[O-].CC[O-].O=C1C=C([O-])C(=O)c2ccccc21.O=C1C=C([O-])C(=O)c2ccccc21.[Ti+4] , please.
Return: > 100 µM

###

Reported TGI values follow for various compounds
# Tested on: SK-MEL-2 melanoma
# assay-overview: NCI tumour cell line growth inhibition, 48 h
Where a SMILES comes first, the peptide text is derived from it. [ ]: non-standard residue; d: D form. The star is where a group is joined. ξ: configuration not given here. NMeY = CN[C@@H](Cc1ccc(O)cc1)C(=O)O; Cbz = O=C(OCc1ccccc1)*; ξA = CC(N)C(=O)O

Worked cases, TGI given:
Enquiry: Bench note: what TGI did Cc1cc(-c2nc3cc(F)ccc3s2)ccc1N show?
Return: > 68.4 µM

Enquiry: What measured TGI goes with O=C(c1ccccc1)c1ccc(N2C(=O)/C(=C/c3ccccc3S)N=C2c2ccccc2)c(N2C(=O)/C(=C/c3ccccc3S)N=C2c2ccccc2)c1 ?
Return: 57.3 µM

Enquiry: Suppose we examine the compound CCOC(=O)c1c2ccccc2n2c(=O)n(-c3ccc(OC)cc3)nnc12 ; what TGI value has been reported?
Return: > 100 µM

Enquiry: Entry under review: O=C1CSC(c2ccccc2)N1c1ccc(-c2ccc(-n3c(-c4ccccc4)nc4ccccc4c3=O)cc2)cc1 (stereo not drawn) . Reported TGI?
Return: > 100 µM

Enquiry: Value lookup for TGI; key = CC1(C)N=C(N)N=C(N)N1c1ccc(OCC(=O)Nc2ccc(S(=O)(=O)F)cc2Cl)c(Cl)c1
Return: > 100 µM

New cases:
Enquiry: Requested read-out: TGI. Entry: COc1cc2c(cc1NC(=O)c1ccccc1)c1c(n2S(=O)(=O)c2ccccc2)CCN(S(=O)(=O)c2ccccc2)C1
Return: > 100 µM

Enquiry: What measured TGI goes with CN(C)CC1(Cc2ccccc2)CC/C(=C\c2ccccc2)C1=O (stereo not drawn) ?
Return: > 100 µM

Enquiry: Which TGI is listed for COc1ccc(C[C@@H](C(=O)N[C@@H](C)C(N)=O)N(C)C(=O)[C@@H]2CCCN2C(=O)[C@H](CC(C)C)NC(=O)C(C)NC(=O)OCc2ccccc2)cc1 (stereo partly drawn) (Cbz-[ξA]LP[NMeY](Me)A-NH2) ?
Return: > 100 µM

###

# System: SN12C renal
# assay-overview: NCI tumour cell line growth inhibition, 48 h
Reported TGI values for the following compounds.
Express it in µM; write the number only.

Enquiry: Query (compound): COc1ccc2nc3ccc(OC)cc3c(S(=O)Cc3ccccc3)c2c1 (stereo not drawn) ; field requested: TGI
Return: 21.3

Enquiry: Entry CC/C(Cl)=N\OC(=O)Nc1ccc(F)c(Cl)c1 : reported TGI = ?
Return: 40.2

Enquiry: Using the record for Cc1cc(O)ccc1C1(c2ccc(O)cc2C)OC(=O)c2ccccc21 , report its TGI.
Return: 39.9

Further cases:
Enquiry: # TGI lookup, item O=C(Cc1cc(O)ccc1O)NO
Return: 33.8

Enquiry: So what does the record say about TGI for Cc1cc(NS(=O)(=O)c2ccc(NO)cc2)no1 ?
Return: 43

Enquiry: Quick one: TGI of Clc1nc(Cl)c2ncn(-c3ccccc3)c2n1 ?
Return: 21.5

###

# Test system: SNB-19 CNS
# assay-overview: NCI tumour cell line growth inhibition, 48 h; in the data active = GI50 below about 0.43 µM; inactive = the rest
Select the matching outcome among active, inactive

Look over these answered cases.
Enquiry: Given C[n+]1cccc(NC(=O)c2ccc3ccc4ccc(C(=O)Nc5ccc[n+](C)c5)nc4c3n2)c1 , state the outcome it received in this test.
Return: inactive

Enquiry: Could you check what this test reported for Cc1nc2ccc(-n3ncc(C(=O)c4cc5ccccc5[nH]4)c3N)cc2[nH]1 ?
Return: inactive

With those in mind, consider the next molecule.
Enquiry: Could you please tell me the result logged for CCCCCCCCCCCCCCCC(=O)NS(=O)(=O)OC[C@H]1O[C@@H](n2cnc3c(N)ncnc32)[C@H](O)[C@@H]1O in this assay?
Return: active
